- measuredTarget: Glycogen synthase kinase-3 beta (Homo sapiens)
- measurementProtocol: concentration-response blocking of human GSK3B – biochemical, luminescence, cell-free homogeneous, retest, dose response (AID 434954)
pEC50: −log10 of the molar value.
Listed next: entries and their corresponding pEC50.

[
  {
    "molecule": "COC(=O)c1ccc(CSc2nnc(-c3ccncc3)o2)o1",
    "measuredTarget": "Glycogen synthase kinase-3 beta (Homo sapiens)",
    "reportedResult": 4.90
  },
  {
    "molecule": "CCC(OCC(O)CN1CCCCC1)c1ccccc1 (configuration not stated)",
    "measuredTarget": "Glycogen synthase kinase-3 beta (Homo sapiens)",
    "reportedResult": "< 3.52"
  }
]

Problem: Return reported pEC50; argument: Nc1nonc1-n1nnc(C(=O)NN=Cc2cccc(F)c2)c1CN1CCCC1
Result: < 3.52

Problem: Return reported pEC50; argument: CCN1CCN(c2ccc(S(=O)(=O)N3CCOCC3)cc2NC(=O)c2ccc(Cl)cc2Cl)CC1
Result: < 3.52

Problem: Return reported pEC50; argument: Nc1nc(NCC(=O)O)nc(NC2CCCCC2)c1[N+](=O)[O-]
Result: < 3.52

Problem: Return reported pEC50; argument: Cc1cc(C)n2nc(SCC(=O)N(CC(C)C)c3c(N)n(CC(C)C)c(=O)[nH]c3=O)nc2n1
Result: < 3.52

Problem: Return reported pEC50; argument: OC[C@H]1O[C@@H](n2cnc3c(O)ncnc32)[C@H](O)[C@@H]1O
Result: < 3.52

----------
- measuredTarget: Glycogen synthase kinase-3 beta (Homo sapiens)
- measurementProtocol: concentration-response blocking of human GSK3B – biochemical, luminescence, cell-free homogeneous, retest, dose response (AID 434954)
quantityName: pEC50
When answering, recall that pEC50 equals minus log10 of the concentration in mol/L, and write that number alone.

Example entries begin here.
[
  {
    "itemSmiles": "O=C1CN=C(c2cccs2)c2c(sc3c2CCCC3)N1",
    "pEC50": 5.51
  },
  {
    "itemSmiles": "CCOC(=O)c1nnn(-c2nonc2N)c1-c1cccs1",
    "pEC50": 4.93
  }
]

Problem: Return reported pEC50; argument: COc1ccc(Nc2nc(N)c([N+](=O)[O-])c(NCCO)n2)cc1
Result: 5.58

Problem: Return reported pEC50; argument: CCN(CC)Cc1c(C(=O)NN=Cc2ccco2)nnn1-c1nonc1N
Result: 3.92

Problem: Return reported pEC50; argument: COC(=O)c1nnn(-c2nonc2N)c1-c1cccs1
Result: 4.58

----------
- measuredTarget: Glycogen synthase kinase-3 beta (Homo sapiens)
- measurementProtocol: concentration-response blocking of human GSK3B – biochemical, luminescence, cell-free homogeneous, retest, dose response (AID 434954)
quantityName: log10 EC50 (log10 of the value in µM)
Please keep in mind that the values are log10 of EC50 expressed in µM.

Example entries begin here.
[
  {
    "compound": "CC(=O)N1CCc2c(sc(NC(=O)CN3C(=O)c4ccccc4C3=O)c2C(N)=O)C1",
    "log10 EC50": 1.29
  },
  {
    "compound": "Nc1nc(Nc2ccccc2)sc1C(=O)c1ccccc1",
    "log10 EC50": -0.77
  },
  {
    "compound": "COc1ccc(N2CC(C(=O)Nc3cc(C)ccn3)CC2=O)cc1 (stereo unspecified)",
    "log10 EC50": 1.67
  },
  {
    "compound": "O=C(Nc1ccc(O)c2c(=O)cc(-c3ccccc3Cl)oc12)c1ccc(F)cc1",
    "log10 EC50": 1.14
  },
  {
    "compound": "Nc1nonc1-n1nnc(C(=O)NN=Cc2cc(Cl)ccc2O)c1CN1CCCCCC1",
    "log10 EC50": 0.94
  },
  {
    "compound": "CC1=Nc2ncnn2C(c2ccco2)C1C(=O)OCc1ccccc1 (stereo unspecified)",
    "log10 EC50": 1.61
  }
]

Consider the additional compound presented here.
Problem: # get_value(readout= log10 EC50, system= Glycogen synthase kinase-3 beta (Homo sapiens)) for C/C(C=NNC(=O)c1nnn(-c2nonc2N)c1CN1CCCCC1)=C\c1ccccc1
Result: 1.46

----------
Listed next: entries and their corresponding EC50.
- measuredTarget: Glycogen synthase kinase-3 beta (Homo sapiens, UniProt P49841)
- Sequence (P49841 whole entry): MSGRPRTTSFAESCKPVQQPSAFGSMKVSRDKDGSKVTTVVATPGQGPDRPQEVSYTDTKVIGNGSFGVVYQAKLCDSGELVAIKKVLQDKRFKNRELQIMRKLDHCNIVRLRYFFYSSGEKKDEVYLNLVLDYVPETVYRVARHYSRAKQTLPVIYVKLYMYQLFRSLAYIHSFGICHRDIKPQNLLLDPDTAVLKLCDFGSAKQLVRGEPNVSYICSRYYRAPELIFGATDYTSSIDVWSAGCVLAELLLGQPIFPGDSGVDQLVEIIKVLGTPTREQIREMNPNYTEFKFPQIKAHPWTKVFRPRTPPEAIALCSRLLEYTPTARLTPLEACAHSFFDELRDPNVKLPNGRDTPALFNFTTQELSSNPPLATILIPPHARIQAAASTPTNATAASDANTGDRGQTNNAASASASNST
- measurementProtocol: concentration-response blocking of human GSK3B – biochemical, luminescence, cell-free homogeneous, retest, dose response (AID 434954)

Example entries begin here.
[
  {
    "compound": "Cc1cnc(C(=O)OCC(=O)N2c3ccccc3CC2C)cn1 (stereo not drawn)",
    "reportedResult": "> 300 µM"
  },
  {
    "compound": "COc1ccc(-n2c(=O)c3c4c(sc3n3c(=S)[nH]nc23)CCC4)cc1",
    "reportedResult": "61.7 µM"
  },
  {
    "compound": "O=C(Nc1ccccn1)Nc1cccs1 [MLS000093554]",
    "reportedResult": "> 300 µM"
  }
]

Problem: # get_value(readout= EC50, system= Glycogen synthase kinase-3 beta (Homo sapiens, UniProt P49841)) for O=S(=O)(c1ccc(Br)cc1)N1CCN(c2cc(-c3ccccc3)nc3ncnn23)CC1
Result: > 300 µM

Problem: # get_value(readout= EC50, system= Glycogen synthase kinase-3 beta (Homo sapiens, UniProt P49841)) for COc1cc(C2c3c(n(Cc4ccccc4)c(=O)[nH]c3=O)N=C3CC(C)(C)CC(=O)C32)ccc1O (stereo not drawn)
Result: > 300 µM

Problem: # get_value(readout= EC50, system= Glycogen synthase kinase-3 beta (Homo sapiens, UniProt P49841)) for Nc1nc(NCCOCCO)nc(NCc2ccccc2)c1[N+](=O)[O-] [MLS001213400]
Result: 21.7 µM

Problem: # get_value(readout= EC50, system= Glycogen synthase kinase-3 beta (Homo sapiens, UniProt P49841)) for O=C(CCSCCc1ccccn1)Nc1ccc(Br)cn1
Result: 39.3 µM

Problem: # get_value(readout= EC50, system= Glycogen synthase kinase-3 beta (Homo sapiens, UniProt P49841)) for Nc1nc(NCc2ccco2)nc(NCCO)c1[N+](=O)[O-]
Result: > 300 µM

----------
Listed next: entries and their corresponding pEC50.
- measuredTarget: Glycogen synthase kinase-3 beta (Homo sapiens, UniProt P49841)
- measurementProtocol: concentration-response blocking of human GSK3B – biochemical, luminescence, cell-free homogeneous, retest, dose response (AID 434954)
pEC50: −log10 of the molar value.

Example entries begin here.
[
  {
    "itemSmiles": "O=C(COc1ccccc1[N+](=O)[O-])NN=Cc1ccccn1",
    "measuredTarget": "Glycogen synthase kinase-3 beta (Homo sapiens, UniProt P49841)",
    "reportedResult": "< 3.52"
  },
  {
    "itemSmiles": "COC(=O)c1nnn(-c2nonc2N)c1CSc1nc2ccccc2s1",
    "measuredTarget": "Glycogen synthase kinase-3 beta (Homo sapiens, UniProt P49841)",
    "reportedResult": "< 3.52"
  }
]

Consider the additional compound presented here.
Problem: Return reported pEC50; argument: O=C(NN=Cc1ccc(-c2ccc(Cl)c(C(=O)O)c2)o1)c1cc2c(ccc3ccccc32)o1
Result: < 3.52

----------
- measuredTarget: Glycogen synthase kinase-3 beta (Homo sapiens)
- measurementProtocol: concentration-response blocking of human GSK3B – biochemical, luminescence, cell-free homogeneous, retest, dose response (AID 434954)
quantityName: log10(EC50) (log10 of the value in µM)
Please keep in mind that the values are log10 of EC50 expressed in µM.

Example entries begin here.
[
  {
    "compound": "O=C1Nc2ccccc2C1=Cc1cnc[nH]1",
    "reportedResult": 0.48
  },
  {
    "compound": "COc1ccc(C=c2sc(=CC(=O)C(C)(C)C)[nH]c2=O)cc1O",
    "reportedResult": 0.86
  },
  {
    "compound": "CCN1CCc2c(C#N)c(N3CCCCC3)nc(N3CCOCC3)c2C1",
    "reportedResult": 1.21
  },
  {
    "compound": "Cc1ccc(C(=O)O/N=C(\\N)c2ccccn2)c(Cl)c1",
    "reportedResult": 1.42
  },
  {
    "compound": "COC(=O)c1ccc(CSc2ccc3nnc(-c4ccc(F)cc4)n3n2)o1",
    "reportedResult": 0.66
  }
]

Problem: Return reported log10(EC50); argument: Cc1n[nH]c2c1[C@@H](c1ccccc1[N+](=O)[O-])C(C#N)C(=N)O2 (stereo partly specified)
Result: 0.98

Problem: Return reported log10(EC50); argument: Nc1nc(NCc2ccccc2)nc(Nc2cccc(F)c2)c1[N+](=O)[O-]
Result: 2.03

----------
- measuredTarget: Glycogen synthase kinase-3 beta (Homo sapiens, UniProt P49841)
- measurementProtocol: concentration-response blocking of human GSK3B – biochemical, luminescence, cell-free homogeneous, retest, dose response (AID 434954)
quantityName: EC50

Problem: # get_value(readout= EC50, system= Glycogen synthase kinase-3 beta (Homo sapiens, UniProt P49841)) for COc1ccc(C)cc1NC(=O)CN(C)S(=O)(=O)c1ccc2c(c1)CC(C)N2C(C)=O (stereo not given) [MLS001122753]
Result: > 300 µM

Problem: # get_value(readout= EC50, system= Glycogen synthase kinase-3 beta (Homo sapiens, UniProt P49841)) for Nc1nonc1-n1nnc(C(=O)NN=Cc2ccoc2)c1CSc1ccc(Cl)cc1
Result: > 300 µM

Problem: # get_value(readout= EC50, system= Glycogen synthase kinase-3 beta (Homo sapiens, UniProt P49841)) for Nc1nonc1-n1nnc(C(=O)NN=Cc2ccc(O)cc2)c1CN1CCCCCC1
Result: 1.85 µM

Problem: # get_value(readout= EC50, system= Glycogen synthase kinase-3 beta (Homo sapiens, UniProt P49841)) for CCCNC(=O)c1ccc(SCC(=O)N(CC)CC)c([N+](=O)[O-])c1
Result: > 300 µM

Problem: # get_value(readout= EC50, system= Glycogen synthase kinase-3 beta (Homo sapiens, UniProt P49841)) for N#Cc1c2n(c3c(-c4ccccc4)ncnc13)CCC2 [MLS000104266]
Result: 40 µM

Problem: # get_value(readout= EC50, system= Glycogen synthase kinase-3 beta (Homo sapiens, UniProt P49841)) for CCN(CC)CCOC(=O)c1ccc(NC(=S)NC(=O)C=Cc2ccco2)cc1 [MLS001178772]
Result: > 300 µM

Problem: # get_value(readout= EC50, system= Glycogen synthase kinase-3 beta (Homo sapiens, UniProt P49841)) for CCc1ccc(C=NNC(=O)c2nnn(-c3nonc3N)c2CN2CCOCC2)cc1
Result: > 300 µM

Problem: # get_value(readout= EC50, system= Glycogen synthase kinase-3 beta (Homo sapiens, UniProt P49841)) for Nc1ncc([N+](=O)[O-])c(N2CCCCCC2)n1 [MLS001174873]
Result: 18.4 µM

Problem: # get_value(readout= EC50, system= Glycogen synthase kinase-3 beta (Homo sapiens, UniProt P49841)) for CSc1nc(N)c2c3c(sc2n1)CN(C)CC3
Result: 73.2 µM

Problem: # get_value(readout= EC50, system= Glycogen synthase kinase-3 beta (Homo sapiens, UniProt P49841)) for Fc1ccccc1CN=Nc1ncnc2nc[nH]c12
Result: 11.2 µM

Problem: # get_value(readout= EC50, system= Glycogen synthase kinase-3 beta (Homo sapiens, UniProt P49841)) for CCc1ccc(C=NNC(=O)c2nnn(-c3nonc3N)c2CN2CCc3ccccc32)cc1
Result: > 300 µM

Problem: # get_value(readout= EC50, system= Glycogen synthase kinase-3 beta (Homo sapiens, UniProt P49841)) for CC1(C)CC(CC(=O)NC(=S)Nc2ccc([N+](=O)[O-])cc2)C(=O)O1 (stereo not given)
Result: 26.7 µM

Problem: # get_value(readout= EC50, system= Glycogen synthase kinase-3 beta (Homo sapiens, UniProt P49841)) for COc1ccc(COC(=O)c2cccc(S(=O)(=O)N3CCN(C(C)=O)CC3)c2)cc1
Result: > 300 µM

Problem: # get_value(readout= EC50, system= Glycogen synthase kinase-3 beta (Homo sapiens, UniProt P49841)) for CC(CC(=O)Nc1cc(C)ccn1)=NNC(=O)C(=O)NC(C)C
Result: > 300 µM

Problem: # get_value(readout= EC50, system= Glycogen synthase kinase-3 beta (Homo sapiens, UniProt P49841)) for c1ccc(-c2nc(NCCCn3ccnc3)c3oc4ccccc4c3n2)cc1
Result: 34.7 µM

Problem: # get_value(readout= EC50, system= Glycogen synthase kinase-3 beta (Homo sapiens, UniProt P49841)) for Cc1ccccc1-n1nnc2c(=O)oc3ccccc3c21
Result: > 300 µM

Problem: # get_value(readout= EC50, system= Glycogen synthase kinase-3 beta (Homo sapiens, UniProt P49841)) for CN(C)CC(=O)N1c2ccccc2Sc2ccc(Cl)cc21
Result: > 300 µM

Problem: # get_value(readout= EC50, system= Glycogen synthase kinase-3 beta (Homo sapiens, UniProt P49841)) for CCCc1cc(=O)[nH]c2nnc(SCC(=O)Nc3nccs3)n12
Result: > 300 µM

Problem: # get_value(readout= EC50, system= Glycogen synthase kinase-3 beta (Homo sapiens, UniProt P49841)) for COc1cccc(C(=O)NCC(=O)NN=C(C)C=Cc2ccccc2)c1 [MLS000723417]
Result: > 300 µM

Problem: # get_value(readout= EC50, system= Glycogen synthase kinase-3 beta (Homo sapiens, UniProt P49841)) for CCOc1ccccc1C=NNC(=O)c1nnn(-c2nonc2N)c1CN1CCCC1
Result: 1.06 µM

Problem: # get_value(readout= EC50, system= Glycogen synthase kinase-3 beta (Homo sapiens, UniProt P49841)) for N#Cc1c(-c2ccccc2)nc(-c2ccccc2)[nH]c1=O [SMR000168447]
Result: > 300 µM

Problem: # get_value(readout= EC50, system= Glycogen synthase kinase-3 beta (Homo sapiens, UniProt P49841)) for O=C(Nc1ccc(-c2nc3ccccc3o2)cc1)c1ccc(N2CCOCC2)c([N+](=O)[O-])c1 [SMR000201361]
Result: > 300 µM

Problem: # get_value(readout= EC50, system= Glycogen synthase kinase-3 beta (Homo sapiens, UniProt P49841)) for Cc1cc(NC(=O)/C=C/c2cccc(F)c2)n(-c2nc3ccccc3[nH]2)n1
Result: > 300 µM

Problem: # get_value(readout= EC50, system= Glycogen synthase kinase-3 beta (Homo sapiens, UniProt P49841)) for CCN(CC)Cc1c(C(=O)OC)nnn1-c1nonc1N [MLS000085717]
Result: > 300 µM

Problem: # get_value(readout= EC50, system= Glycogen synthase kinase-3 beta (Homo sapiens, UniProt P49841)) for COc1ccccc1/C=C1\C(=O)Nc2ccccc21 [SMR000523491]
Result: > 300 µM

Just for reference, BindingDB's records for doi:10.7270/Q2TX3CTT is where these values come from.
